Value source: PubChem BioAssay AID1159580

Test: chemical genetic growth profiling, strain panel (AID 1159580);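 also: tested at 20 µM; growth read once vehicle control cultures reached saturation at 30 °C; 1 = growth at the plate median or of vehicle wells; lower values mean less growth of the strain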
Details: S. cerevisiae deletion strains, growth OD, locus YEL061C, strain CIN8 (second series), hits give low values
Out of some 5,500 compounds screened, about 2,000 (36%) were called active. Not shown: some 18% with an inconclusive outcome. The list shows a part of the results.
readout: normalized growth
Give bare numbers.

Field: example entries. Status: answers known.
[
  {
    "compound": "CC(C)(O)CC[C@@H](O)[C@](C)(O)C1CC[C@@]2(O)C3=CC(=O)C4C[C@@H](O)[C@@H](O)C[C@]4(C)C3CC[C@]12C (some centres not stated)",
    "endpointValue": 1
  },
  {
    "compound": "CC1=C(C(=O)O)N2C(=O)[C@@H](NC(=O)[C@H](N)C3=CCC=CC3)C2SC1 (some centres not stated)",
    "endpointValue": 1.02
  },
  {
    "compound": "CC(=O)Oc1ccc2c(c1)CCC1C2CCC2(C)C1CC(OC(C)=O)C2OC(C)=O (configuration not stated)",
    "endpointValue": 1.01
  },
  {
    "compound": "C[C@H]1C(=O)O[C@@H]2CCN3CC=C(COC(=O)[C@](C)(O)[C@]1(C)O)[C@H]23",
    "endpointValue": 0.99
  },
  {
    "compound": "C[C@]12CCC3c4ccc(O)cc4CCC3C1CC[C@@H]2OC(=O)CCC1CCCC1 (some centres not stated)",
    "endpointValue": 1.01
  }
]

// each listed compound needs a value for normalized growth
1. CC(=O)OC1CCC2C3CCc4cc(O)ccc4C3CCC12C (configuration not stated)
2. O=c1cc(-c2ccc(O)cc2)oc2cc(O[C@@H]3O[C@H](CO)[C@@H](O)[C@H](O)[C@H]3O[C@@H]3OC[C@](O)(CO)[C@H]3O)cc(O)c12

Reply:
1. 0.978
2. 1
